# Test: nmpC-GFP reporter counter-screen in S. Typhimurium, dose response, counter-screen for PhoP regulon inhibitor project, Salmonella Typhimurium, GFP fluorescence (AID 2401);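 note: S. typhimurium with Mg-insensitive nmpC-GFP reporter grown at 10 µM Mg2+; drop in reporter fluorescence reflects general culture growth inhibition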
# Assay Conditions: 4 h; series mostly up to 150 µM
The campaign covered roughly 2,200 compounds. About 530 (24%) were called active. Only a sample is shown. Entries with a potency or affinity are not part of this list.
Observed Property: outcome

# Compound, Result Value
rows = [
    ("CCCn1c(SCC(=O)c2c(C)[nH]c(C)c2C(=O)OCC)nc2ccccc21", "inactive"),
    ("Cc1ccc(Nc2nc(CSc3nnc(-c4ccc(F)cc4)n3C)cs2)cc1", "inactive"),
    ("CC(C)c1ccc(NC(=O)Nc2cc3sccc3n2C)cc1", "inactive"),
    ("CCOC(=O)c1cnc(SCC(=O)Nc2ccc(N3CCOCC3)c(Cl)c2)nc1N", "inactive"),
    ("c1ccc(Nc2ccnc(Nc3ccccc3)n2)cc1", "inactive"),
]

Below is a list of compounds. For each, state its recorded outcome.
1. COc1ccc(OCCSc2nnc(-c3ccc(OC)cc3)n2N)cc1
2. CN(CCO)c1cc(Sc2nc3ccccc3s2)c2nonc2c1[N+](=O)[O-]
3. O=C(CSc1nnnn1-c1ccccc1)CC(=O)Nc1ccc(Cl)cc1
4. Cc1ccc([N+](=O)[O-])cc1NC(=S)NC(=O)C(C)(C)C
5. CCOC(=O)CN1C(=O)C(C)(C)Oc2ccc(C(=O)Nc3ccccc3OC)cc21
6. O=S(=O)(c1ccc(NC(=S)Nc2ccc3c(c2)OCO3)cc1)N1CCOCC1

stdout:
inactive
inactive
inactive
inactive
inactive
inactive
